# EXPERIMENTAL_SYSTEM: DNA gyrase from E. coli (Escherichia coli, UniProt P0AES4+P0AES6)
# PROTOCOL_NOTES: E. coli DNA gyrase inhibition (Inspiralis assay)
VALUE_KIND: pIC50
Quick note: pIC50 means taking -log10 of the concentration in moles per liter.

Test system DNA gyrase from E. coli (Escherichia coli, UniProt P0AES4+P0AES6); read-out pIC50; what value for CCCCCN(C)Cc1cc(C(=O)O)ccc1N1C(=O)c2nc3c(NC)cc(F)cc3c(O)c2C1=O [Compound 12] ?
7.80
